ASSAY_TEXT: In vivo pharmacokinetic analysis
RUN_PARAMETERS: male, Beagle, dog, plasma, iv, 0.1 mg/kg
As shown below, each of these compounds has a reported AUC value.
Returns: string containing the number followed by the unit.

# query: AUC of entry CNC(=O)c1ccc(-c2cnn3ccc(C(=O)N(C)c4ccc(Cl)c(C(=O)OC)c4)cc23)cc1
0.0779 µM·h

Shift focus to the following entry.
# query: AUC of entry CNC(=O)c1ccc(-c2cnn3ccc(C(=O)N(C)c4ccc(Cl)c(C(=O)O)c4)cc23)cc1
0.0319 µM·h

====

As shown below, each of these molecules has a reported half-life value.
ASSAY_TEXT: Hepatocytes metabolic stability
Format: in vitro ADME
RUN_PARAMETERS: mouse, hepatocytes

// known answers, use as guide
# query: half-life of entry CNC(=O)c1ccc(-c2cnn3ccc(C(=O)N(C)c4ccc(Cl)c(C(=O)OC)c4)cc23)cc1 [EDI048]
2.8 min

# query: half-life of entry CNC(=O)c1ccc(-c2cnn3ccc(C(=O)N(CCC(=O)OCC(=O)N(C)C)c4ccc(Cl)cc4)cc23)cc1 [Compound 3]
< 2.8 min

Shift focus to the following entry.
# query: half-life of entry CNC(=O)c1ccc(-c2cnn3ccc(C(=O)N(C)c4ccc(Cl)c(C(=O)O)c4)cc23)cc1 [Compound 6]
> 175 min

====

ASSAY_TEXT: High-throughput equilibrium solubility
Assay type: physicochemical
RUN_PARAMETERS: pH 6.8, aqueous buffer, thermodynamic from solid, Solubility pH 6.8, pH 6.8
READOUT_KIND: solubility (µM)
Lab book: enter the figure in µM, no units written.

# query: solubility of entry CNC(=O)c1ccc(-c2cnn3ccc(C(=O)N(C)c4ccc(Cl)c(C(=O)OC)c4)cc23)cc1 [EDI048]
54

====

ASSAY_TEXT: Hepatocytes metabolic stability
Format: in vitro ADME
RUN_PARAMETERS: dog, hepatocytes
READOUT_KIND: hepatocyte CLint (µL/min/1e6 cells)
Lab book: enter the figure in µL/min/1e6 cells, no units written.

# query: hepatocyte CLint of entry CNC(=O)c1ccc(-c2cnn3ccc(C(=O)N(C)c4ccc(Cl)c(C(=O)OC)c4)cc23)cc1
28.5

====

ASSAY_TEXT: 2 weeks GLP dog toxicology study with toxicokinetics
Type: in vivo
RUN_PARAMETERS: both, beagle, dog, in vivo, po
READOUT_KIND: NOAEL at 14 days (mg/kg/day)
Lab book: enter the figure in mg/kg/day, no units written.

# query: NOAEL at 14 days of entry CNC(=O)c1ccc(-c2cnn3ccc(C(=O)N(C)c4ccc(Cl)c(C(=O)OC)c4)cc23)cc1
1000

====

ASSAY_TEXT: 2 weeks GLP rat toxicology study with toxicokinetics
Assay type: in vivo
RUN_PARAMETERS: both, Wistar, plasma, po, 1000 mg/kg/day, Tmax, EDI048 1000 mg/kg/day, day 14
READOUT_KIND: Tmax (h)
Lab book: enter the figure in h, no units written.

// known answers, use as guide
# query: Tmax of entry COC(=O)c1cc(N(C)C(=O)c2ccn3ncc(-c4ccc(C(=O)O)cc4)c3c2)ccc1Cl [Compound 7]
1

# query: Tmax of entry CNC(=O)c1ccc(-c2cnn3ccc(C(=O)N(C)c4ccc(Cl)c(C(=O)OC)c4)cc23)cc1 [EDI048]
0.5

Next:
# query: Tmax of entry CNC(=O)c1ccc(-c2cnn3ccc(C(=O)N(C)c4ccc(Cl)c(C(=O)O)c4)cc23)cc1 [Compound 6]
3

====

ASSAY_TEXT: In vivo pharmacokinetic analysis
RUN_PARAMETERS: male, Beagle, dog, plasma, iv, 0.1 mg/kg
READOUT_KIND: half-life
Returns: string containing the number followed by the unit.

# query: half-life of entry CNC(=O)c1ccc(-c2cnn3ccc(C(=O)N(C)c4ccc(Cl)c(C(=O)OC)c4)cc23)cc1
33.6 min

====

ASSAY_TEXT: In vivo pharmacokinetic analysis
RUN_PARAMETERS: male, Beagle, dog, plasma, po, 0.3 mg/kg
READOUT_KIND: bioavailability
Returns: string containing the number followed by the unit.

# query: bioavailability of entry CNC(=O)c1ccc(-c2cnn3ccc(C(=O)N(C)c4ccc(Cl)c(C(=O)OC)c4)cc23)cc1 [EDI048]
5.6%

====

TEST_SYSTEM: ATM (Homo sapiens)
Sequence (Q13315 whole entry): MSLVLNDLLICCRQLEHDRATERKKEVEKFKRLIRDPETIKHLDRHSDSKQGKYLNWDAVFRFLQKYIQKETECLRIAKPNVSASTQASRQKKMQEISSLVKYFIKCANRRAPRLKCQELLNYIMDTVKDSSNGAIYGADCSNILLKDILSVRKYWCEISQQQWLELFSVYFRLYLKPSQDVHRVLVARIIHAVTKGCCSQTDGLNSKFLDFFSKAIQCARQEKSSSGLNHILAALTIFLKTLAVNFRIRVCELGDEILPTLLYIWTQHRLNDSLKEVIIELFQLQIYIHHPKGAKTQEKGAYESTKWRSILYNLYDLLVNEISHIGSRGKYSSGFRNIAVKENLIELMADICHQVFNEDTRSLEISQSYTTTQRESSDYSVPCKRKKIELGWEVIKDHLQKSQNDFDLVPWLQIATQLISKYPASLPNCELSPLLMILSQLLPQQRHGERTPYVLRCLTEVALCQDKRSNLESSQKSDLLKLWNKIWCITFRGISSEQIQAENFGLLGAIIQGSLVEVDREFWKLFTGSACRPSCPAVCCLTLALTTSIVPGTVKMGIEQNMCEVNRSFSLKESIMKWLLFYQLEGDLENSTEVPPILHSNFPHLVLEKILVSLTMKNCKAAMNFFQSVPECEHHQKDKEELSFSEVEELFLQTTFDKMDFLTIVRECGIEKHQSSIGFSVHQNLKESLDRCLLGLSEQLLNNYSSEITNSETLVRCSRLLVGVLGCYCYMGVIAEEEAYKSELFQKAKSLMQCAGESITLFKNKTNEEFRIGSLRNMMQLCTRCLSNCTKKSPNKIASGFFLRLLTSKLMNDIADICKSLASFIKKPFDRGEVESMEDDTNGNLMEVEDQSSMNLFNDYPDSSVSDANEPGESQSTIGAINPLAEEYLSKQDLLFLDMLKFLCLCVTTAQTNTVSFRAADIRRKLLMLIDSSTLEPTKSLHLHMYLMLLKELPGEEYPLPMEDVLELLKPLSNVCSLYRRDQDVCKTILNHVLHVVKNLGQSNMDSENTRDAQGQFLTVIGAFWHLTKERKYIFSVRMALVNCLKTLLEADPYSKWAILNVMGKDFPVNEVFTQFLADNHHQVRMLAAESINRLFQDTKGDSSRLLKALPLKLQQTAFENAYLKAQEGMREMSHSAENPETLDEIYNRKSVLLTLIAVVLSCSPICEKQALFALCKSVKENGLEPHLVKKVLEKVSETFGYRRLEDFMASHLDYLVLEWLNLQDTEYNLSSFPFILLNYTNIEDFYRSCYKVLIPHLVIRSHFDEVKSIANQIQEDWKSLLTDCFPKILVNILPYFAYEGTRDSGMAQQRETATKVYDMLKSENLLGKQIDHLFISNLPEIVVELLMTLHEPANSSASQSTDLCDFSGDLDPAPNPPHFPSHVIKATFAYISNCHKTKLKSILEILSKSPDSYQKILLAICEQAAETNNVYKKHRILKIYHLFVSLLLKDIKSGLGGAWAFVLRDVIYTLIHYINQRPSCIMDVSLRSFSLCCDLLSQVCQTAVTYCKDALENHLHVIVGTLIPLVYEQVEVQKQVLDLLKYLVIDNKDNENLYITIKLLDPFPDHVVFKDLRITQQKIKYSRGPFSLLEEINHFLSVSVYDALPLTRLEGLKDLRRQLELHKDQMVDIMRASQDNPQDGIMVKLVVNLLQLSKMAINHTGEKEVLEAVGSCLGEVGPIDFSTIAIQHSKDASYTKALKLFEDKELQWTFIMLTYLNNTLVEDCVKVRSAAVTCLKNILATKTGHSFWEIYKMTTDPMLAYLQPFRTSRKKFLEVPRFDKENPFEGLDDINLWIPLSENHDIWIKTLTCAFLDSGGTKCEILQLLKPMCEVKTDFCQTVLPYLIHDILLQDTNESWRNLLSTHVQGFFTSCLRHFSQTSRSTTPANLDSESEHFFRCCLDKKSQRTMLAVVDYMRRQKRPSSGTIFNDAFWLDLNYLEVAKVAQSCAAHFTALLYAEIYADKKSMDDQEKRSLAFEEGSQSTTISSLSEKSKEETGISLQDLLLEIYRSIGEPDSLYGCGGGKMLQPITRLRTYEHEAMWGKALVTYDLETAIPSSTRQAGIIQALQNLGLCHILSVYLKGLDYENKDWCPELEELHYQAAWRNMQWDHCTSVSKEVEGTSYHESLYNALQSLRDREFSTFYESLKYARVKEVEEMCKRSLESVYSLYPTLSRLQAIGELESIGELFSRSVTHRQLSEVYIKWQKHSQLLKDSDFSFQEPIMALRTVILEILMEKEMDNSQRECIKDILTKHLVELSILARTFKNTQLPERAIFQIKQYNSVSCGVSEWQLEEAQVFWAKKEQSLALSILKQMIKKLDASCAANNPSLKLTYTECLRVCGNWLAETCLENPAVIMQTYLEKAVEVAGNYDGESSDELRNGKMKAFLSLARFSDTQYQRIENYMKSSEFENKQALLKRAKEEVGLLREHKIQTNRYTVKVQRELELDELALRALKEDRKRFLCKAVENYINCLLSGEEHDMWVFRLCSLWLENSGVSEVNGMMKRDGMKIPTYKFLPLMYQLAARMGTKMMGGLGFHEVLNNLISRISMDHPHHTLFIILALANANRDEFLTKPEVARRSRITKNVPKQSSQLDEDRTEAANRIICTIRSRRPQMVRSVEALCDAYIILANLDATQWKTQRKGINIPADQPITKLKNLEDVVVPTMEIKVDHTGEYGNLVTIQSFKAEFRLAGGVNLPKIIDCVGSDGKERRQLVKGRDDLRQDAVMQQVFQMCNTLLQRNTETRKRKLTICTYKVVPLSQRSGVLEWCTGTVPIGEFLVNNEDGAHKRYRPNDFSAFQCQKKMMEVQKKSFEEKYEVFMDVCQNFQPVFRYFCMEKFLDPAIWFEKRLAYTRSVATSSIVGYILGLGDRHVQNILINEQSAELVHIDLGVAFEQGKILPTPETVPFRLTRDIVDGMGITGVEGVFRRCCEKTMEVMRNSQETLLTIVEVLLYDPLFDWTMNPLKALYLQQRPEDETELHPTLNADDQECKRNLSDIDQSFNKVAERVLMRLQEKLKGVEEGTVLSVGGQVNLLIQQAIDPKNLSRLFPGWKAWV
READOUT_KIND: IC50 (nM)
Lab book: enter the figure in nM, no units written.

Kindly state the measured IC50 obtained for CNC(=O)c1ccc(-c2cnn3ccc(C(=O)N(C)c4ccc(Cl)c(C(=O)OC)c4)cc23)cc1 with ATM (Homo sapiens).
445

====

ASSAY_TEXT: Stability in intestinal S9 fraction
Format: in vitro ADME
RUN_PARAMETERS: human
// assign criterion met if half-life falls strictly below 2 h, else criterion not met (ties count as criterion not met)

Example results:
Consider the compound COC(=O)c1cc(Cl)ccc1N(C)C(=O)c1ccn2ncc(-c3ccc(C(N)=O)cc3)c2c1 . Is its half-life strictly less than 2 h?
criterion met

Consider the compound CNC(=O)c1ccc(-c2cnn3ccc(C(=O)N(C)c4ccc(Cl)c(C(=O)OC)c4)cc23)cc1 . Is its half-life strictly less than 2 h?
criterion not met

Consider the compound CNC(=O)c1ccc(-c2cnn3ccc(C(=O)N(C[C@H]4CCC(=O)O4)c4ccc(OC(F)(F)F)cc4)cc23)cc1 . Is its half-life strictly less than 2 h?
criterion not met

Next:
Consider the compound CNC(=O)c1ccc(-c2cnn3ccc(C(=O)N(CCC(=O)OCC(=O)N(C)C)c4ccc(Cl)cc4)cc23)cc1 . Is its half-life strictly less than 2 h?
criterion met

====

ASSAY_TEXT: Liver microsomes metabolic stability
Type: in vitro ADME
RUN_PARAMETERS: rat, liver microsomes
READOUT_KIND: microsomal CLint

# query: microsomal CLint of entry CNC(=O)c1ccc(-c2cnn3ccc(C(=O)N(C)c4ccc(Cl)c(C(=O)OC)c4)cc23)cc1
> 700 µL/min/mg

====

TEST_SYSTEM: CYP3A4 (Homo sapiens, UniProt P08684)
Sequence (P08684 whole entry): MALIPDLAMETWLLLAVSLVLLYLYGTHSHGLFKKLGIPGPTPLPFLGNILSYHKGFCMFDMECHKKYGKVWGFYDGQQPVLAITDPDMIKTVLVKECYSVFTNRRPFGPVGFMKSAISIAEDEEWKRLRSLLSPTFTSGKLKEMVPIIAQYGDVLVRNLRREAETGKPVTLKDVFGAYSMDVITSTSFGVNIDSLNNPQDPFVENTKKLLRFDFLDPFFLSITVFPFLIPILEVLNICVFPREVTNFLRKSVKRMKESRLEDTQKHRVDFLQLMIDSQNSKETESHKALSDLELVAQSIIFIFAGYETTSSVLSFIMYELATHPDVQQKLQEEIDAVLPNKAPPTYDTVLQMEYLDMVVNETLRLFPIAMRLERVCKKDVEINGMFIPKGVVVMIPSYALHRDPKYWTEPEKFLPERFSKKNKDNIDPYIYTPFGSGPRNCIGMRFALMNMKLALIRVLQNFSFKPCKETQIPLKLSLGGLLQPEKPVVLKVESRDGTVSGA
READOUT_KIND: pIC50
Hey, just a heads up that pIC50 is the negative log base 10 of the concentration in molar.

# query: pIC50 of entry CNC(=O)c1ccc(-c2cnn3ccc(C(=O)N(C)c4ccc(Cl)c(C(=O)OC)c4)cc23)cc1 [EDI048]
4.98

====

TEST_SYSTEM: hERG potassium channel (Homo sapiens)
Sequence (Q12809 whole entry): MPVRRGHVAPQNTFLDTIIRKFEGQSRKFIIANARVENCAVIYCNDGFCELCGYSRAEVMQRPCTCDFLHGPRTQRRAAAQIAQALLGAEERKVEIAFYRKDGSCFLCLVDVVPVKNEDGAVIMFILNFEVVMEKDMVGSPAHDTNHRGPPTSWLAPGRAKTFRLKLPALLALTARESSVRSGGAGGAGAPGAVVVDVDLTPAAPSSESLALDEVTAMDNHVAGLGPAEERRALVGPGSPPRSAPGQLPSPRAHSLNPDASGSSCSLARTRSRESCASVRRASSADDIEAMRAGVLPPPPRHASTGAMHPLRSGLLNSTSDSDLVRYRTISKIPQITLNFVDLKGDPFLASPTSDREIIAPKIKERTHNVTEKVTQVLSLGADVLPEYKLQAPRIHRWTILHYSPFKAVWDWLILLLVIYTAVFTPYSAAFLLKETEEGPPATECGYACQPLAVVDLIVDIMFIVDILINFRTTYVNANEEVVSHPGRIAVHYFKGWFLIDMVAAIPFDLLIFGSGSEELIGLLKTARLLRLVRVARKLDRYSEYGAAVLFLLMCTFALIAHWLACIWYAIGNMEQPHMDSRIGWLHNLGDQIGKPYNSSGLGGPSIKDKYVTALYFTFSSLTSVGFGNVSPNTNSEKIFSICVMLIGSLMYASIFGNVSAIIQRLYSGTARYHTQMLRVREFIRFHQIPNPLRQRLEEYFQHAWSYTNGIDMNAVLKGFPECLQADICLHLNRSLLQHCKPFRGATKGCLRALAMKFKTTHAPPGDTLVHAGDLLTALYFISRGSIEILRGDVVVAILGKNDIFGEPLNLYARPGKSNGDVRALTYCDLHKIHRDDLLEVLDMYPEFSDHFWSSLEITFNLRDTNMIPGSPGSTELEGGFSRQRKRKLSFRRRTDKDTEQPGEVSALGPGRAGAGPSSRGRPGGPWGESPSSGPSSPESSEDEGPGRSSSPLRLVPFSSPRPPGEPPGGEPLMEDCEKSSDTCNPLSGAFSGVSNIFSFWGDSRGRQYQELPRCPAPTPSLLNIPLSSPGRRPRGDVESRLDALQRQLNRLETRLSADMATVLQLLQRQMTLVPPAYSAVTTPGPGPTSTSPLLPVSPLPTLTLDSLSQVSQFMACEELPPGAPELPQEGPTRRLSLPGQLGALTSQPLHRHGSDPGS
ASSAY_TEXT: hERG Q-Patch
As shown below, each of these compounds has a reported IC50 value.
Lab book: enter the figure in µM, no units written.

# query: IC50 of entry CN(C(=O)c1ccn2ncc(-c3ccc(C(N)=O)cc3)c2c1)c1ccc(C#N)cn1 [KDU731, reference compound]
23

Next:
# query: IC50 of entry CNC(=O)c1ccc(-c2cnn3ccc(C(=O)N(C)c4ccc(Cl)c(C(=O)OC)c4)cc23)cc1
8.3

====

ASSAY_TEXT: Hepatocytes metabolic stability
Format: in vitro ADME
RUN_PARAMETERS: mouse
As shown below, each of these compounds has a reported Hepatocytes ER value.
Lab book: enter the figure in %, no units written.

// known answers, use as guide
# query: Hepatocytes ER of entry COC(=O)c1cc(Cl)ccc1N(C)C(=O)c1ccn2ncc(-c3ccc(C(N)=O)cc3)c2c1
91

# query: Hepatocytes ER of entry CNC(=O)c1ccc(-c2cnn3ccc(C(=O)N(CC(=O)O)c4ccc(Cl)cc4)cc23)cc1
52

Next:
# query: Hepatocytes ER of entry CNC(=O)c1ccc(-c2cnn3ccc(C(=O)N(C)c4ccc(Cl)c(C(=O)OC)c4)cc23)cc1
93

# query: Hepatocytes ER of entry CNC(=O)c1ccc(-c2cnn3ccc(C(=O)N(CCC(=O)OCC(=O)N(C)C)c4ccc(Cl)cc4)cc23)cc1
93

# query: Hepatocytes ER of entry CCOC(=O)CN(C(=O)c1ccn2ncc(-c3ccc(C(=O)NC)cc3)c2c1)c1ccc(Cl)cc1
74

# query: Hepatocytes ER of entry CN(C(=O)c1ccn2ncc(-c3ccc(C(N)=O)cc3)c2c1)c1ccc(C#N)cn1 [KDU731, reference compound]
18

# query: Hepatocytes ER of entry CNC(=O)c1ccc(-c2cnn3ccc(C(=O)N(C)c4ccc(Cl)c(C(=O)O)c4)cc23)cc1
18

====

Endpoint: pIC50. System: HsPI(4)K (Homo sapiens, UniProt Q9UBF8). Items follow.
Sequence (Q9UBF8 523-816 limits assumed): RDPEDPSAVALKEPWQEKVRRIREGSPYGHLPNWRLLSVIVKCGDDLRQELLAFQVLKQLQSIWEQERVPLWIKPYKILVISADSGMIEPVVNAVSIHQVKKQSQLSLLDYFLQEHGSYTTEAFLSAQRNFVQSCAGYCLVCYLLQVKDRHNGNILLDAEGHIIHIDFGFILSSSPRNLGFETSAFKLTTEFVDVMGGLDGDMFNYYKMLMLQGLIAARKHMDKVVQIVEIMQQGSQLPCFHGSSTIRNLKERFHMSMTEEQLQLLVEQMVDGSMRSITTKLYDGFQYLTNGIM
Hey, just a heads up that pIC50 is the negative log base 10 of the concentration in molar.

Kindly state the measured pIC50 obtained for CNC(=O)c1ccc(-c2cnn3ccc(C(=O)N(C)c4ccc(Cl)c(C(=O)O)c4)cc23)cc1 with HsPI(4)K (Homo sapiens, UniProt Q9UBF8).
6.32

Kindly state the measured pIC50 obtained for CNC(=O)c1ccc(-c2cnn3ccc(C(=O)N(CCC(=O)OCC(=O)N(C)C)c4ccc(Cl)cc4)cc23)cc1 with HsPI(4)K (Homo sapiens, UniProt Q9UBF8).
5.99

Kindly state the measured pIC50 obtained for CCOC(=O)CN(C(=O)c1ccn2ncc(-c3ccc(C(=O)NC)cc3)c2c1)c1ccc(Cl)cc1 with HsPI(4)K (Homo sapiens, UniProt Q9UBF8).
5.94

Kindly state the measured pIC50 obtained for CNC(=O)c1ccc(-c2cnn3ccc(C(=O)N(CC(=O)O)c4ccc(Cl)cc4)cc23)cc1 with HsPI(4)K (Homo sapiens, UniProt Q9UBF8).
6.87

Kindly state the measured pIC50 obtained for CNC(=O)c1ccc(-c2cnn3ccc(C(=O)N(C[C@H]4CCC(=O)O4)c4ccc(OC(F)(F)F)cc4)cc23)cc1 with HsPI(4)K (Homo sapiens, UniProt Q9UBF8).
5.86

Kindly state the measured pIC50 obtained for CNC(=O)c1ccc(-c2cnn3ccc(C(=O)N(C)c4ccc(Cl)c(C(=O)OC)c4)cc23)cc1 with HsPI(4)K (Homo sapiens, UniProt Q9UBF8).
5.99
